biological target: Protein cereblon/Wee1-like protein kinase (Homo sapiens) (UniProt P30291+Q96SW2); experiment: PROTAC activity at CRBN/Wee1 in human HeLa S3 cells assessed as induction of Wee1 degradation at 1 uM measured after 24 hrs by Western blot analysis relative to control; assay type: cell-based
Sequence (P30291 whole entry, looked up): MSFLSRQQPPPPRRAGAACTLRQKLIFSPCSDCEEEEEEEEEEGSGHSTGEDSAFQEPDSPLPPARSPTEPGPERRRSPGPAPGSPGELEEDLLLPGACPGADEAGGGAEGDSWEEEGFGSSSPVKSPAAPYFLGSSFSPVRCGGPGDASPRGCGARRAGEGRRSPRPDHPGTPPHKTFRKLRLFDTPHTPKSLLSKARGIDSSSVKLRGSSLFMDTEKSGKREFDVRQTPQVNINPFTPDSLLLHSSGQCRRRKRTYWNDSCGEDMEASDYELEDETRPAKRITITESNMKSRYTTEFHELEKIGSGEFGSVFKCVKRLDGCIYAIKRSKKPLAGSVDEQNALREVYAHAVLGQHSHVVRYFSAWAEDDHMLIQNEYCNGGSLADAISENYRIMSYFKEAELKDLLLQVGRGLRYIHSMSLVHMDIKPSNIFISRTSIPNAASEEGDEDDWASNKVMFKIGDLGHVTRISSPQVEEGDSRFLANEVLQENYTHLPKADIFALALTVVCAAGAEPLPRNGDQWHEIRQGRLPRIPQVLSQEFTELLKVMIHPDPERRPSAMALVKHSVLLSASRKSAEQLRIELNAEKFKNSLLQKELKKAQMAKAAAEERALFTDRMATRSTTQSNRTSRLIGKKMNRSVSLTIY
Sequence (Q96SW2 whole entry, looked up): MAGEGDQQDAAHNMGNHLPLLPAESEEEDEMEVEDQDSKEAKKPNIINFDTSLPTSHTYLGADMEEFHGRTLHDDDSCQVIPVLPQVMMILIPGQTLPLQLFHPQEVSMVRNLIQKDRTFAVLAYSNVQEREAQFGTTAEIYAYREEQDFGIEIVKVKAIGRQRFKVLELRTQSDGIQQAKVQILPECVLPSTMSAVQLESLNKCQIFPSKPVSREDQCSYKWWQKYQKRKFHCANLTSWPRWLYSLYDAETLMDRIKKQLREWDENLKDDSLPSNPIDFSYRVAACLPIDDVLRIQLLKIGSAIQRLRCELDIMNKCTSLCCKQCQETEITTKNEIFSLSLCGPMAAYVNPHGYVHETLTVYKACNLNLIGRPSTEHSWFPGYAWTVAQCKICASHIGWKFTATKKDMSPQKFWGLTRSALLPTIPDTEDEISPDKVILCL
propertyName: Activity (%)
Write the value in % as a bare number.

Prompt: Reported Activity for C=CCn1c(=O)c2cnc(Nc3ccc(N4CCN(CCCC(=O)NCCCC(=O)NCCNc5cccc6c5C(=O)N(C5CCC(=O)NC5=O)C6=O)CC4)cc3)nc2n1-c1cccc(C(C)(C)O)n1 (stereo not given) : what is it?
Response: 47

Prompt: If you can, please state the reported Activity value of C=CCn1c(=O)c2cnc(Nc3ccc(N4CCN(CCCC(=O)NCCCCCC(=O)NCCNc5cccc6c5C(=O)N(C5CCC(=O)NC5=O)C6=O)CC4)cc3)nc2n1-c1cccc(C(C)(C)O)n1 (stereo not given) .
Response: 75

Prompt: I have this molecule here, C=CCn1c(=O)c2cnc(Nc3ccc(N4CCN(CCCC(=O)NCCOCCOCCOCC(=O)NCCNc5cccc6c5C(=O)N(C5CCC(=O)NC5=O)C6=O)CC4)cc3)nc2n1-c1cccc(C(C)(C)O)n1 (stereo not given) , and I need its recorded Activity.
Response: 96

Prompt: What value of measured Activity is listed for C=CCn1c(=O)c2cnc(Nc3ccc(N4CCN(CCCC(=O)NCCCCCCCC(=O)NCCNc5cccc6c5C(=O)N(C5CCC(=O)NC5=O)C6=O)CC4)cc3)nc2n1-c1cccc(C(C)(C)O)n1 (stereo not given) ?
Response: 83

Prompt: Name the reported Activity value associated with the molecule C=CCn1c(=O)c2cnc(Nc3ccc(N4CCN(CCCC(=O)NCCNc5cccc6c5C(=O)N(C5CCC(=O)NC5=O)C6=O)CC4)cc3)nc2n1-c1cccc(C(C)(C)O)n1 (stereo not given)
Response: 21
